Form field: Ki (one value per entry).
target: D(4) dopamine receptor (Homo sapiens); experiment: Binding affinity towards human cloned dopamine (hD4.4) receptor expressed in CHO cells using [3H]spiperone as radioligand; assay type: cell-based
Sequence (P21917 whole entry): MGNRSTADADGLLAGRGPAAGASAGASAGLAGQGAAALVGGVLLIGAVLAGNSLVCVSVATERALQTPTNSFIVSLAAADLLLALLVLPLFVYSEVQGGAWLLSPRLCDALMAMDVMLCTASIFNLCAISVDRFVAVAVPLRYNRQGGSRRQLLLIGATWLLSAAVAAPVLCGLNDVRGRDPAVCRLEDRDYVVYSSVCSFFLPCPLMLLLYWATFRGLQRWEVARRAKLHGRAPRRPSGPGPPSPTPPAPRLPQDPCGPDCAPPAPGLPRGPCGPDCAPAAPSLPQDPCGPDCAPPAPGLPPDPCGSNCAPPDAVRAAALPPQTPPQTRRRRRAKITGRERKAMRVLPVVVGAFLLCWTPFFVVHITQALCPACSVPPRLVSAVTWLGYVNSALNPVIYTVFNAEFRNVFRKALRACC
result.type: Ki (nM)

> print(dat)
                       smiles.notation  units.symbol  recorded.value
1             Oc1ccc(OCCNCc2ccccc2)cc1            nM             277
2   CS(=O)(=O)Nc1cccc(OCCNCc2ccccc2)c1            nM             500
3  CS(=O)(=O)Nc1cc(OCCNCc2cccs2)ccc1Cl            nM             137
4           Nc1cc(OCCNCc2ccccc2)ccc1Cl            nM            27.2
5               Oc1ccccc1OCCNCc1ccccc1            nM             297
6             Oc1cccc(OCCNCc2ccccc2)c1            nM            80.6
7              c1ccc(CNCCOc2ccccc2)cc1            nM              94
